Origin of the recorded values: patent US8188135B2

- target_desc: human CB2 receptors (Homo sapiens, UniProt P34972)
- Construct: expressed in transfected cells; host or cells: HEK293
- Sequence (P34972 whole entry): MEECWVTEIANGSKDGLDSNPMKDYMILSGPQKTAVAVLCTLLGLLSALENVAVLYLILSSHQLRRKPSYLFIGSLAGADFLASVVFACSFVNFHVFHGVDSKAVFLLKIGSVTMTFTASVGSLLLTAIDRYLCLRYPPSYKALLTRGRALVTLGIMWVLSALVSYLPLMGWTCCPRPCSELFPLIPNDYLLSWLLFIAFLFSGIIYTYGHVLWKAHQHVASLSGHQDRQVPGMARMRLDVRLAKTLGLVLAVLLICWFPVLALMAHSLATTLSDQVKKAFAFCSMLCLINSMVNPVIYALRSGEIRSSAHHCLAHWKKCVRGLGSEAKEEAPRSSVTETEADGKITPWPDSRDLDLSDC
- test_details: human CB2 radioligand binding assay ([3H]CP 55,940 competition)
- applied_conditions: human CB2 (Ki, nM), HEK293 membranes, 0.5 nM [3H]CP 55,940
endpoint_name: Ki (nM)
Answer format: numeric, nM implied, no suffix.

Cn1c(C(C)(C)C)c/c(=N\C(=O)c2cc(C(F)(F)F)ccc2OCCNC(=O)OC(C)(C)C)n1C[C@H]1CCCO1: 96
Cn1c(C(C)(C)C)c/c(=N\C(=O)c2cc(C(F)(F)F)ccc2OCCCS(C)(=O)=O)n1CC1CCC1: 22
Cn1c(C(C)(C)C)c/c(=N\C(=O)c2cc(C(F)(F)F)ccc2OCCNS(=O)(=O)C2CC2)n1C[C@H]1CCCO1: 13
Cn1c(C(C)(C)C)c/c(=N\C(=O)c2cc(C(F)(F)F)ccc2OC[C@@H]2COC(C)(C)O2)n1C[C@H]1CCCO1: 40
CCC(O)(CC)COc1ccc(C(F)(F)F)cc1C(=O)/N=c1\cc(C(C)(C)C)n(C)n1C[C@H]1CCCO1: 83
CSCCCCOc1ccc(C(F)(F)F)cc1C(=O)/N=c1\cc(C(C)(C)C)n(C)n1C[C@H]1CCCO1: 5.4

So what does the record say about Ki for "Cn1c(C(C)(C)C)c/c(=N\C(=O)c2cc(Br)ccc2OCC(C)(C)O)n1C[C@H]1CCCO1" ? 15
